# ASSAY EXPLANATION: protein stability index of a GFP-peptide fusion (yeast GPS) (PSI 1-4); higher = more stable; sorted into four equal gates, so the index is relative within each strain
# RUN CONDITIONS: san1∆
Threshold rule: protein stability index greater than or equal to 3 is y; below that, n.

Use these answered entries as a reference point.
> print(dat)
                  biopolymer.sequence  group
1  NLNTDKLKNNASRSQLE [YJL039C/NUP192]      n
2    TTESNSRLKALNLQFKA [YLR335W/NUP2]      y
3            VEGHLFEIIDEASKKSA [FAS1]      y
4            HKSIELISNLLFSKNRN [YCS4]      n
5          CKEVGITAVHVKIRATG [RPS14A]      n
6          NAEKTGKRQVLIRPSSK [RPS22A]      y

stdin: Given ARDIISHNFQNAIFQME [PCI8] , state whether its protein stability index is at least 3.
stdout: n

stdin: Given EPDREKIKLLTQATSED [RPC19] , state whether its protein stability index is at least 3.
stdout: n

stdin: Given ENAYDNPLADAEEALEP [PRE4] , state whether its protein stability index is at least 3.
stdout: y

stdin: Given RCMMAAQYFYSGAYSYP [DIS3] , state whether its protein stability index is at least 3.
stdout: n

stdin: Given RASLVPGTVLILLAGRF [RPL6A] , state whether its protein stability index is at least 3.
stdout: n

stdin: Given AIITDDLDTVLKKDIES [SRP72] , state whether its protein stability index is at least 3.
stdout: n

stdin: Given NQNSSTGAGAFGTGQST [YJL041W/NSP1] , state whether its protein stability index is at least 3.
stdout: n

Sourced from the supplement of paper PMC9732359
